Measured on: MAP kinase-activated protein kinase 2 (Homo sapiens) (UniProt P49137)
Sequence (P49137 whole entry, looked up): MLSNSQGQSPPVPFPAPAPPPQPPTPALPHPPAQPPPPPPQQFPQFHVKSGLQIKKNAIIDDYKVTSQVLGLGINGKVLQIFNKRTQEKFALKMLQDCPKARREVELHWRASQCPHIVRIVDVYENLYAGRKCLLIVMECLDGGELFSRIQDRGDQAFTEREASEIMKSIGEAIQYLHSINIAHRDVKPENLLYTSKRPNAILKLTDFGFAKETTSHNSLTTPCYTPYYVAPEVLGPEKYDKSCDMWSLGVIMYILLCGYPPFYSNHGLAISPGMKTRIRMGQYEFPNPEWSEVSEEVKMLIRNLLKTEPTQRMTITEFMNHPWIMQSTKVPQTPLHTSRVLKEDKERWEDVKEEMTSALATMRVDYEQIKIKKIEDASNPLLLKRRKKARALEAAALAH
Experimental context: at 10 µM
Result type: residual activity (%)

INSERT INTO measurements (molecule, result_type, observed_result) VALUES
  ('COc1ccc2c(c1)/C(=C/c1cnc[nH]1)C(=O)N2', 'residual activity', 99),
  ('COc1cc(OC)c(/C=C2\C(=O)Nc3ccccc32)c(OC)c1', 'residual activity', 94),
  ('O=C1Nc2ccc3ncsc3c2/C1=C/c1c[nH]cn1', 'residual activity', 67),
  ('O=c1[nH]c2ccccc2n1C1CCN(Cc2ccc(-c3nc4cc5[nH]cnc5cc4nc3-c3ccccc3)cc2)CC1', 'residual activity', 103),
  ('O=[N+]([O-])/C=C/c1ccc2c(c1)OCO2', 'residual activity', 108);

---

Listing of recorded residual activity by entry.
Measured on: Insulin receptor (Homo sapiens) (UniProt P06213)
Sequence (P06213 28-758 limits assumed): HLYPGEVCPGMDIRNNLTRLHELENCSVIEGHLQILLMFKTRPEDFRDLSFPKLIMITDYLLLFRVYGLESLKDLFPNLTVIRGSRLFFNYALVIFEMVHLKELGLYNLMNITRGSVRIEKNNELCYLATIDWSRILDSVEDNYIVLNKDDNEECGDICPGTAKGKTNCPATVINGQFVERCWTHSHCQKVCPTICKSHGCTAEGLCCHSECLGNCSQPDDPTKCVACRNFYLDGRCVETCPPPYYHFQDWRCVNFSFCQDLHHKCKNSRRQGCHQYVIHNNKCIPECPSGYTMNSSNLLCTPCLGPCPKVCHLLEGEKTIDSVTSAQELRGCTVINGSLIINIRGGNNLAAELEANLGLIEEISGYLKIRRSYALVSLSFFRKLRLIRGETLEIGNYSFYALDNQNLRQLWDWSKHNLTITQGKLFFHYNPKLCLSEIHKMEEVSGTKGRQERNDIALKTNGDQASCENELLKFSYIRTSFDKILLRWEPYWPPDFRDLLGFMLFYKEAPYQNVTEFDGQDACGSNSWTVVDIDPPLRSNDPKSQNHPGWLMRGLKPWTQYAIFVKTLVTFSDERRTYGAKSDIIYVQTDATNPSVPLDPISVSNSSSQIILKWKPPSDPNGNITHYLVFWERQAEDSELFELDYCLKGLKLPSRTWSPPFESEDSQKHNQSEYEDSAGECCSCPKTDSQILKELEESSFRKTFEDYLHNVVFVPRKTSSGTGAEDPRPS
Sequence (P06213 763-1382 limits assumed): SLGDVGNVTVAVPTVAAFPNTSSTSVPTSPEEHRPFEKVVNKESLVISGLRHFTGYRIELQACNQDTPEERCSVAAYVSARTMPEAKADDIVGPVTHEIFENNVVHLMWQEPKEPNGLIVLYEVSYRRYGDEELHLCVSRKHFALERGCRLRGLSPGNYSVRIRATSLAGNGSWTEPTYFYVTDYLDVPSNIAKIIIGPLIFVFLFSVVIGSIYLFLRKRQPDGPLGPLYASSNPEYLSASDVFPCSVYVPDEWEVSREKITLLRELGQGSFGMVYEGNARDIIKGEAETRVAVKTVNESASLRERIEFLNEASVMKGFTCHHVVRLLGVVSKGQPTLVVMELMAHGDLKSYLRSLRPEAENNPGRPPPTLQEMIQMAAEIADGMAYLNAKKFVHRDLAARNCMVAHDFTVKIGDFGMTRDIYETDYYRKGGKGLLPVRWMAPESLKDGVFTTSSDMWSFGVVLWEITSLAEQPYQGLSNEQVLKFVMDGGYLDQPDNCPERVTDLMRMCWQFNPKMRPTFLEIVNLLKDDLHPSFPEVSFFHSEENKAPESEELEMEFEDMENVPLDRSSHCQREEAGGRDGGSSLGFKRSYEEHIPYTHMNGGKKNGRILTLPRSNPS
Experimental context: at 10 µM
Result type: residual activity

INSERT INTO results (molecule, observed_result) VALUES
  ('O=C1NC(=O)c2c1c1c3ccccc3n3c1c1c2c2ccccc2n1C1CCC3O1', '79%'),
  ('CC(C)[C@H](CO)Nc1nc(Nc2cccc(Cl)c2)c2ncn(C(C)C)c2n1', '33%'),
  ('O=c1[nH]c2ccccc2n1C1CCN(Cc2ccc(-c3nc4cc5[nH]cnc5cc4nc3-c3ccccc3)cc2)CC1', '75%'),
  ('COc1ccc2c(c[n+](C)c3c4cc5c(cc4ccc23)OCO5)c1OC', '130%'),
  ('COc1cc2ncnc(Nc3ccc(OCc4ccccc4)cc3)c2cc1OC', '98%'),
  ('O=[N+]([O-])/C=C/c1ccc2c(c1)OCO2', '85%'),
  ('COc1cc(OC)c(/C=C2\C(=O)Nc3ccccc32)c(OC)c1', '86%'),
  ('CC(C)(C)c1cc(C=C(C#N)C#N)cc(Br)c1O', '108%');

---

Measured on: Mitogen-activated protein kinase 12 (Homo sapiens)
Sequence (whole entry): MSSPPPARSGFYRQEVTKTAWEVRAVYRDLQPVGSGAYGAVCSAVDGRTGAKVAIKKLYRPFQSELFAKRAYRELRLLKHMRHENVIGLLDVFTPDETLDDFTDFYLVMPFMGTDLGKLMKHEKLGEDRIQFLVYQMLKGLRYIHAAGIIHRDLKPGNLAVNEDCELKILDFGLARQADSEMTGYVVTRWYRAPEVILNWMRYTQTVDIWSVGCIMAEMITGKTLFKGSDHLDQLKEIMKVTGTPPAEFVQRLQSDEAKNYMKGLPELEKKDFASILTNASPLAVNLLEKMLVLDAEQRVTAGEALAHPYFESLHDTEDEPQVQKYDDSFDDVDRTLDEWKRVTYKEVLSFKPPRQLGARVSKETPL
Experimental context: at 1 µM
Result type: residual activity

INSERT INTO assay_data (compound, observed_result) VALUES
  ('CC#CC(=O)Nc1cc2c(Nc3ccc(F)c(Cl)c3)ncnc2cn1', '103%'),
  ('c1ccc(-c2n[nH]cc2-c2ccnc3ccccc23)nc1', '101%'),
  ('O=C(Nc1cccc(Nc2nccc(Nc3cccc(C(F)(F)F)c3)n2)c1)C1CC1', '98%'),
  ('COc1cc2ncnc(N3CCN(C(=O)Nc4ccc(Oc5ccccc5)cc4)CC3)c2cc1OC', '93%'),
  ('Cc1ccc(NC2=CC(=O)c3sc(C)nc3C2=O)cc1', '87%'),
  ('O=C1NC(=O)/C(=C\c2ccc3nccnc3c2)S1', '100%'),
  ('COc1ccc(C(=O)Nc2sc3c(c2C(N)=O)CCCC3)cc1OC', '95%'),
  ('c1ccc2c(-c3ccncc3)c[nH]c2c1', '100%'),
  ('COc1ccc(Cl)cc1NC(=O)Nc1cc(C)nc2ccccc12', '95%'),
  ('C[C@@H](N)[C@H]1CC[C@H](C(=O)Nc2ccncc2)CC1', '111%'),
  ('O=C1c2ccccc2-[n+]2ccc3c([nH]c4ccccc43)c21', '89%'),
  ('O=C1Nc2cc(Br)ccc2/C1=C1/Nc2ccccc2/C1=N\O', '95%'),
  ('Cn1cnc2cc3c(Nc4cccc(Br)c4)ncnc3cc21', '104%'),
  ('Nc1nc(Nc2ccc(S(N)(=O)=O)cc2)nn1C(=S)Nc1c(F)cccc1F', '56%'),
  ('COc1cccc(-c2cc(=O)c3ccccc3o2)c1N', '102%'),
  ('c1ccc(-c2cnc(Nc3ccc(OCCN4CCCC4)cc3)s2)cc1', '115%'),
  ('COc1ccc2c(c1)c(C1=C(c3c[nH]c4ccccc34)C(=O)NC1=O)cn2CCCN(C)C', '100%'),
  ('CCCC(=O)Oc1ccc2[nH]c(C(=O)c3cc4ccccc4[nH]3)cc2c1', '96%'),
  ('O=C(O)/C=C/c1cc(Br)c(Br)c(Br)c1Br', '110%'),
  ('CO[C@H]1[C@@H](OC)C[C@H](C)[C@@H](OC)C2=CC(=O)C=C(NC(=O)/C(C)=C/C=C/[C@H](OC)[C@@H](OC(N)=O)/C(C)=C/[C@@H]1C)C2=O', '110%'),
  ('Cn1c2ccccc2c2c3c(c4c5ccccc5n(CCC#N)c4c21)CNC3=O', '61%'),
  ('CC(C)n1cnc2c(NCc3ccccc3)nc(NCCCO)nc21', '100%'),
  ('COc1ccc(S(=O)(=O)N(CCO)c2ccccc2CN(C)C/C=C/c2ccc(Cl)cc2)cc1', '99%'),
  ('COc1cc(OC)c(/C=C2\C(=O)Nc3ccccc32)c(OC)c1', '97%'),
  ('O=C1NC(=O)c2cc(Nc3ccc(F)cc3)c(Nc3ccc(F)cc3)cc21', '99%'),
  ('COc1cc2ncnc(Nc3ccc(Oc4ccccc4)cc3)c2cc1OC', '108%'),
  ('O=C(Nc1cccc(Nc2cc(Nc3cccc(C(F)(F)F)c3)ncn2)c1)C1CC1', '94%'),
  ('O=C1Nc2ccccc2/C1=C1/Nc2ccccc2/C1=N\OCCC(O)CO (stereo unspecified)', '95%'),
  ('CNc1cc2c(Nc3cccc(Br)c3)ncnc2cn1', '105%'),
  ('Nc1n[nH]c2nnc(-c3c(-c4ccccc4)nn4ccccc34)cc12', '91%'),
  ('CC(C)n1cnc2/c(=N/c3cccc(Cl)c3)nc(NCCO)[nH]c21', '96%'),
  ('CC(=O)O/N=C1\C(=C2\C(=O)Nc3cc(Br)ccc32)Nc2ccccc21', '94%'),
  ('COc1ccc(CNc2nc(N(CCO)CCO)nc3c2ncn3C(C)C)cc1', '109%'),
  ('O=c1c2ccccc2[nH]c(=S)n1CCN1CCC(=C(c2ccc(F)cc2)c2ccc(F)cc2)CC1', '115%'),
  ('O=[N+]([O-])/C=C/c1ccc2c(c1)OCO2', '107%'),
  ('O=c1cc(N2CCOCC2)oc2c1ccc1ccccc12', '104%'),
  ('Cn1sc(=O)n(Cc2ccccc2)c1=O', '90%'),
  ('O=C1c2ccccc2-c2nc3nnnn3nc21', '130%'),
  ('COc1cc2ncnc(Nc3cccc(Cl)c3)c2cc1OC', '116%'),
  ('COc1cc2ncnc(Nc3ccc(O)c(Br)c3)c2cc1OC', '98%'),
  ('O=C1Nc2ccc(Br)cc2/C1=C\c1cc2c([nH]1)CCCC2', '115%'),
  ('CCc1nc(-c2ccc(OC)cc2)[nH]c1-c1ccncc1', '108%'),
  ('CC(C)c1nn(-c2c(Cl)cccc2Cl)c2nc(Cc3ccc(OCCO)cc3)[nH]c(=O)c12', '105%'),
  ('C[S+]([O-])c1ccc(-c2nc(-c3ccc(F)cc3)c(-c3ccncc3)[nH]2)cc1 (stereo unspecified)', '114%'),
  ('O=c1cc(N2CCNCC2)oc2c(-c3ccccc3)cccc12', '92%'),
  ('CCC(=O)Nc1ccc2ncnc(Nc3cccc(Br)c3)c2c1', '101%');
